Recorded values, source patent US20200323888A1.

Molecular target: Naa80 (Homo sapiens, UniProt Q93015)
Construct: The PCR product containing the CDS was inserted into the TOPO TA vector; made in house; host or cells: E. coli BL21 Star (DE3)
Sequence (Q93015 1-308 isoform Q93015-2): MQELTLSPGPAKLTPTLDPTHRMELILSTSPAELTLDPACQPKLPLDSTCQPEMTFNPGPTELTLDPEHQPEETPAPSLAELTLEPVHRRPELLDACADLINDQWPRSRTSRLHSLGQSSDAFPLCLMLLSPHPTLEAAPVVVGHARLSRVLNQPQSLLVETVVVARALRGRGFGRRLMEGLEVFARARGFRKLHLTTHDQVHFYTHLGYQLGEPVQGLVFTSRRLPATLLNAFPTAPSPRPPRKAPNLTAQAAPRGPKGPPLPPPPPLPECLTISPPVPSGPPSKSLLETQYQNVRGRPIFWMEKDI
Assay: Naa80 substrate screening assay (peptide acetylation by purified Naa80)
Format: biochemical
Conditions: Naa80 mediated acetylation of 24-mer peptide substrates
reported.metric: Product formation

Here are 4 substances together with their reported answers.
[
  {
    "substance": "DDDI24: 24-mer substrate peptide: N-terminal DDDIAAL (SEQ ID NO: 41) plus constant RWGRPVGRRRRPVRVYP (DDDIAALRWGRPVGRRRRPVRVYP)",
    "Product formation": "50.5 (±1.0) μM"
  },
  {
    "substance": "SESS24: 24-mer substrate peptide: N-terminal SESSSKS (SEQ ID NO: 43) plus constant RWGRPVGRRRRPVRVYP (SESSSKSRWGRPVGRRRRPVRVYP)",
    "Product formation": "1.14 (±3.35) μM"
  },
  {
    "substance": "EEEI24: 24-mer substrate peptide: N-terminal EEEIAAL (SEQ ID NO: 40) plus constant RWGRPVGRRRRPVRVYP (EEEIAALRWGRPVGRRRRPVRVYP)",
    "Product formation": "42.4 (±0.95) μM"
  },
  {
    "substance": "MKKS24: 24-mer substrate peptide: N-terminal MKKSYSG (SEQ ID NO: 51) plus constant RWGRPVGRRRRPVRVYP (MKKSYSGRWGRPVGRRRRPVRVYP)",
    "Product formation": "3.37 (±1.71) μM"
  }
]

Exercise: Field request: Product formation | item: AVFA24: 24-mer substrate peptide: N-terminal AVFADLD (SEQ ID NO: 44) plus constant RWGRPVGRRRRPVRVYP (AVFADLDRWGRPVGRRRRPVRVYP)
Key: −0.96 (±0.84) μM

Exercise: Field request: Product formation | item: MDEL24: 24-mer substrate peptide: N-terminal MDELFPL (SEQ ID NO: 45) plus constant RWGRPVGRRRRPVRVYP (MDELFPLRWGRPVGRRRRPVRVYP)
Key: 119 (±5.61) μM

Exercise: Field request: Product formation | item: MTNK24: 24-mer substrate peptide: N-terminal MTNKSSL (SEQ ID NO: 48) plus constant RWGRPVGRRRRPVRVYP (MTNKSSLRWGRPVGRRRRPVRVYP)
Key: −4.25 (±1.75) μM

Exercise: Field request: Product formation | item: MELL24: 24-mer substrate peptide: N-terminal MELLSPP (SEQ ID NO: 46) plus constant RWGRPVGRRRRPVRVYP (MELLSPPRWGRPVGRRRRPVRVYP)
Key: 2.15 (±0.40) μM

Exercise: Field request: Product formation | item: MLGP24: 24-mer substrate peptide: N-terminal MLGPEGG (SEQ ID NO: 49) plus constant RWGRPVGRRRRPVRVYP (MLGPEGGRWGRPVGRRRRPVRVYP)
Key: 2.06 (±1.49) μM

Exercise: Field request: Product formation | item: MAPL24: 24-mer substrate peptide: N-terminal MAPLDLD (SEQ ID NO: 50) plus constant RWGRPVGRRRRPVRVYP (MAPLDLDRWGRPVGRRRRPVRVYP)
Key: 2.28 (±0.61) μM
